# System: MDA-MB-231
# procedure-summary: NCI tumour cell line growth inhibition, 48 h
Activity calls are given as the source filed them. No stated cut-off is given here; in the data, active = GI50 up to about 1.1 µM and inactive = higher.
experimental-readout: GI50

[
  {
    "compound": "CCOC(=O)C(=[N+]=[N-])C(=O)C1(C(=O)OCC)CCN(C(=O)c2ccccc2)C1=O (centres undefined)",
    "result": "> 100 µM (inactive)"
  },
  {
    "compound": "Cc1ccc(S(=O)(=O)N2CC2CCCCC=O)cc1 (centres undefined)",
    "result": "> 100 µM (inactive)"
  },
  {
    "compound": "CCn1c(=O)ccc2ccc(N(CCO)CCO)nc21",
    "result": "> 100 µM (inactive)"
  }
]

Now let's try a different one.
GI50 recorded for this compound, CC[C@@]1(OC(=O)C(N)CCC(=O)O)C(=O)OCc2c1cc1n(c2=O)Cc2cc3ccccc3nc2-1 (some centres undefined) , is 1.63 µM (inactive)

* * *

# Tested on: PC-3
# procedure-summary: NCI tumour cell line growth inhibition, 48 h
Active and inactive are the calls of the source. Rule as the data show it: active = GI50 up to about 1.1 µM and inactive = higher. Where a SMILES comes first, the peptide text is derived from it.
Entries and their measured GI50 follow.

[
  {
    "molecule": "CN(C)c1cc2ccccc2oc1=O",
    "experimental-readout": "GI50",
    "result": "> 100 µM (inactive)"
  },
  {
    "molecule": "O=c1nc(N2CCN(c3ccccc3)CC2)ccn1C1OC(CO)C(O)C1O (stereo not given)",
    "experimental-readout": "GI50",
    "result": "74.5 µM (inactive)"
  },
  {
    "molecule": "CCOC(=O)C(Cc1ccc(OC(=O)OC(C)(C)C)cc1)NC(=O)OC(C)(C)C (stereo not given)",
    "experimental-readout": "GI50",
    "result": "34.5 µM (inactive)"
  },
  {
    "molecule": "CC(C)CC(NC(=O)C(Cc1ccccc1)NC(=O)C(Cc1c[nH]c2ccccc12)NC(=O)CNC(=O)C(N)Cc1ccc(O)cc1)C(=O)O (stereo not given) (H-YGWFL-OH; configuration not given here)",
    "experimental-readout": "GI50",
    "result": "44.7 µM (inactive)"
  }
]

Just so you know, measured GI50 for c1cc2ccc3cc4ncccc4c4ccc(c1)c2c34 came out at 33 µM (inactive)

* * *

# System: NCI-H522
# procedure-summary: NCI tumour cell line growth inhibition, 48 h
The source made the active and inactive calls. No stated cut-off is given here; in the data, active = GI50 up to about 1.1 µM and inactive = higher.
Select the matching outcome among active, inactive

As a guide, the following entries are already answered.
[
  {
    "compound": "COc1cc2c(cc1OCCCCN1CCN(CCCCOc3cc4c(cc3OC)C(=O)N3CCC[C@H]3C=N4)CC1)N=C[C@@H]1CCCN1C2=O",
    "class": "active"
  },
  {
    "compound": "O=C(c1ccco1)N(C(=S)N1CCN(c2ccccc2)CC1)C1CCCCC1",
    "class": "inactive"
  }
]

Test call, this compound: CCOC(=O)c1c(-c2ccc(Cl)cc2)c(C#N)c(=S)n(C2OC(COC(C)=O)C(OC(C)=O)C(OC(C)=O)C2OC(C)=O)c1C (stereo unspecified)
inactive

Returns: the outcome recorded for CC1(C)OCC2(CO1)CSCCCSCC1(COC(C)(C)OC1)CSCCCSC2 in this assay.
inactive

Please indicate how the test categorized COc1cc2c(cn1)[nH]c1ccccc12 .
inactive

Dear colleague, could you share the recorded outcome for C/C(=C/C(=O)Nn1c(Cc2ccccc2)n[nH]c1=O)C(=O)O when you have a moment?
inactive

* * *

# Test system: NCI-H522
# procedure-summary: NCI tumour cell line growth inhibition, 48 h
Calls of active or inactive are those of the source. No stated cut-off is given here; in the data, active = GI50 up to about 1.1 µM and inactive = higher.
Measured GI50 of individual entries

Below, each entry is followed by its recorded GI50 result.
[
  {
    "compound": "O=c1nc(N2CCN(c3ccccc3)CC2)ccn1C1OC(CO)C(O)C1O (stereo not given)",
    "GI50": "52800 nM (inactive)"
  },
  {
    "compound": "COc1ccc2nc3ccc(OC)cc3c([S+]([O-])Cc3ccccc3)c2c1 (stereo not given)",
    "GI50": "1650 nM (inactive)"
  },
  {
    "compound": "CCCCCCCCCCCC(=O)NCc1ccc(OC(=O)CCCCCCCCCCC)c(OC)c1",
    "GI50": "2630 nM (inactive)"
  },
  {
    "compound": "Cc1nc2nn[nH]n2c(=O)c1CCO",
    "GI50": "> 100000 nM (inactive)"
  }
]

O=C(CC(O)(C(F)(F)F)C(F)(F)Cl)CC(O)(C(F)(F)F)C(F)(F)Cl (stereo not given) has a reported GI50 of 1610 nM (inactive)

* * *

# Test system: COLO 205
# procedure-summary: NCI tumour cell line growth inhibition, 48 h
Active and inactive are the calls of the source. Cut-off read from the data, not from the text of the source: active = GI50 up to about 1.1 µM and inactive = higher.
Form entry, call: pick from active, inactive

Observe how each entry below is paired with its result.
[
  {
    "compound": "C=C1C(C2(C)C(OC(C)=O)CC(=O)OC(C)(COC(C)=O)C2CC(=O)OC)C(OC=O)C(OC(=O)C(O)C(C)CC)C2(C)C(c3ccoc3)CC(=O)C12O (stereo not drawn)",
    "experimental-system": "COLO 205",
    "class": "inactive"
  },
  {
    "compound": "COC(=O)C1=CC2C(=O)OC1CC2C#N (stereo not drawn)",
    "experimental-system": "COLO 205",
    "class": "inactive"
  },
  {
    "compound": "CN1CCN(C(=S)N(C(=O)c2ccc(Cl)cc2)C2CCCCC2)CC1",
    "experimental-system": "COLO 205",
    "class": "inactive"
  }
]

Which outcome did this test record for the compound CSC(=Nc1nnc(-c2ccc([N+](=O)[O-])cc2)s1)SC ?
inactive

Dear colleague, could you share the recorded outcome for CCOC(=N)CC(=O)NC(C)c1ccccc1 (stereo not drawn) when you have a moment?
inactive

Record lookup: outcome of this test for C/C(O)=C/C(=O)c1[nH]c(C(=O)O)cc1C1CCN(Cc2ccccc2)C1=O (stereo not drawn) ?
inactive

Assay outcome for CC(=O)OC(CC1(C)C(C)CCC23COC(=O)C2=CCCC31)c1ccoc1 (stereo not drawn) : what was it?
inactive

* * *

# System: 786-0
# procedure-summary: NCI tumour cell line growth inhibition, 48 h
Calls of active or inactive are those of the source. No stated cut-off is given here; in the data, active = GI50 up to about 1.1 µM and inactive = higher.
Returns: one label drawn from active, inactive

[
  {
    "compound": "CN(C)CCNc1ccc2c(=O)n(CCN(C)C)c(=O)n3c4ccc([N+](=O)[O-])cc4c(=O)c1c23",
    "experimental-system": "786-0",
    "class": "active"
  }
]

Please let me know the test result on file for C[C@@H](NC(C#N)c1ccco1)c1ccccc1 (stereo partly specified) .
inactive

Per the assay record, what outcome was assigned to C=C1C(C2(C)C(OC(C)=O)CC(=O)OC(C)(COC(C)=O)C2CC(=O)OC)C(OC=O)C(OC(=O)C(O)C(C)CC)C2(C)C(c3ccoc3)CC(=O)C12O (stereo unspecified) ?
inactive

Record request — test call for COc1cc2c(cc1OCCCCN1CCN(CCCCOc3cc4c(cc3OC)C(=O)N3CCC[C@H]3C=N4)CC1)N=C[C@@H]1CCCN1C2=O
active

State the result this test recorded for C[N+](C)(CCNC(=O)c1cccc2cc3ccccc3nc12)Cc1ccc([N+](=O)[O-])cc1 .
inactive

Hi team, can someone confirm the assay call for CCOC(=O)C1C(c2ccc3c(c2)OCO3)c2c(n[nH]c2O)CC1(O)OCC (stereo unspecified) ?
inactive

Per the records of this test, what outcome belongs to CCOC(=O)C1C(=O)CC(O)(OCC)C(C(=O)OCC)C1c1ccc(OC)cc1 (stereo unspecified) ?
inactive

Check the results log: what was the call for NCCCCCCn1c(-c2ccc(Br)cc2)cs/c1=N\c1ccccc1 ?
inactive

For NC(=O)c1cccc(/N=c2\oc3ccc(Br)cc3cc2-c2nc3ccccc3[nH]2)c1 , what call appears in the results of this test?
inactive

Name the outcome recorded for COC(=O)c1c(C)cc2c(c1O)C1(O)C(=O)c3cc4c(c(O)c3C(=O)C1(OC)C(O)C2)C(=O)C=C(NC1OC(C)C(OC)C(O)C1OC)C4=O (stereo unspecified) in the assay.
active

Check the results log: what was the call for Nc1c2ccccc2nc2c(C(=O)Nc3ccc(S(N)(=O)=O)cc3)cccc12 ?
inactive

Write down the call the test reported for this compound. Item: O=C(Nc1cc2cc([N+](=O)[O-])ccc2oc1=O)c1cccs1
inactive

How was COc1cc(C2c3cc4c(cc3OC3(OC)COC(=O)C23)OCO4)cc(OC)c1OC (stereo unspecified) classified in this test?
active

So what was the verdict on C/C(=C/C(=O)Nn1c(Cc2ccccc2)n[nH]c1=O)C(=O)O in this test?
inactive

* * *

# System: UACC-62
# procedure-summary: NCI tumour cell line growth inhibition, 48 h
Active and inactive are the calls of the source. Cut-off read from the data, not from the text of the source: active = GI50 up to about 1.1 µM and inactive = higher.
Form entry, call: pick from T = active, F = inactive

Answered cases to consult:
[
  {
    "molecule": "COc1ccc(-n2cnc3c(NC(Cc4ccccc4)C(=O)O)ncnc32)cc1 (configuration not stated)",
    "experimental-system": "UACC-62",
    "class": "F"
  },
  {
    "molecule": "O=C(NC1C(=O)NNC1c1ccccc1Cl)c1ccccc1 (configuration not stated)",
    "experimental-system": "UACC-62",
    "class": "F"
  },
  {
    "molecule": "CCc1c(Cl)nc(Cl)nc1Cl",
    "experimental-system": "UACC-62",
    "class": "T"
  },
  {
    "molecule": "COC(=O)C1=CC2C(=O)OC1CC2C#N (configuration not stated)",
    "experimental-system": "UACC-62",
    "class": "F"
  },
  {
    "molecule": "Cc1ccc(Nc2sc(C)cc2C#N)c([N+](=O)[O-])c1",
    "experimental-system": "UACC-62",
    "class": "F"
  }
]

I'd appreciate the recorded outcome for CC(=O)Oc1ccc2c(c1)c1c(OC(C)=O)c3ccccc3c(OC(C)=O)c1n2Cc1cccc(C)c1 from this test.
F

Short answer needed: outcome of this test for Cc1nc2nn[nH]n2c(=O)c1CCO ?
F
